The reported numbers originate from patent US7485641B2.

biological target: DPP-IV (Homo sapiens); construct: purchased Enzyme Systems Products SPE-01; test: In vitro assay for dipeptidyl peptidase inhibition; assay type: biochemical; settings: n-value given in brackets; read-out: DPP-IV IC50
Sequence (P27487 whole entry, species assumed): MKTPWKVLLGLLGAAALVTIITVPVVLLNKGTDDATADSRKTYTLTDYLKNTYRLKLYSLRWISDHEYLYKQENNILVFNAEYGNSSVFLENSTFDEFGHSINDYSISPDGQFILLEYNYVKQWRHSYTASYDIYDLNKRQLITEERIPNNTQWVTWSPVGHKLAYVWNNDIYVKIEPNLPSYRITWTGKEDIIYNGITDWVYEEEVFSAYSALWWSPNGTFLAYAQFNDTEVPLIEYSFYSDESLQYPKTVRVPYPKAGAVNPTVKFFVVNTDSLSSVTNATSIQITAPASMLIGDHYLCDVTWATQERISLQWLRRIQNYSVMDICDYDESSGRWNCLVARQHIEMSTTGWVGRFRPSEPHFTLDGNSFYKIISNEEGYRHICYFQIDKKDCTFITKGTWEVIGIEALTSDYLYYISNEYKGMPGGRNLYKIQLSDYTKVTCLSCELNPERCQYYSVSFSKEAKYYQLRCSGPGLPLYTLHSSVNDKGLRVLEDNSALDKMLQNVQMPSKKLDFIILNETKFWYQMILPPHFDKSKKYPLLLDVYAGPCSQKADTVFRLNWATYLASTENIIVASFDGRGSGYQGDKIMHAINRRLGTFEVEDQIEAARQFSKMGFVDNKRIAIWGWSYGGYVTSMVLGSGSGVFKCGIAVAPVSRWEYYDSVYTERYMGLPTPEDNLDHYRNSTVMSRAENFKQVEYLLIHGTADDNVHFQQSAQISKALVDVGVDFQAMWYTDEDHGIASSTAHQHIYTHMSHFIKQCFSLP
pIC50: −log10 of the molar value.
valueKind: pIC50

These solved cases illustrate the format of a correct answer.
1. N[C@H]1CN(c2cc(N3CCc4ccccc4C3)ncn2)C[C@@H]1N1CCCC1=O [Example 57]    6.50
2. N[C@H]1CN(c2cc(N3CCc4[nH]ncc4C3)ncn2)C[C@@H]1N1CCCC1=O [Example 66]    6.40
3. Cc1nc(-c2ccccc2)cc(N2C[C@H](N)[C@@H](N3CC(F)(F)CCC3=O)C2)n1 [Example 83]    7.47
4. CCCc1nc(N2C[C@H](N)[C@@H](N3CCCCC3=O)C2)cc(N2CCC(F)(F)C2)n1 [Example 18]    7.36
5. N[C@H]1CN(c2ncnc3cc(C4CCCC4)ccc23)C[C@@H]1N1CCCCC1=O [Example 111]    6.64
6. CCC(CC)c1ccc2c(N3C[C@H](N)[C@@H](N4CCCCC4=O)C3)ncnc2c1 [Example 117]    6.69

[1] CC(C)Sc1ccc2c(N3C[C@H](N)[C@@H](N4CCCCC4=O)C3)ncnc2c1 [Example 137]
[2] COc1ccc(Oc2ccc3c(N4C[C@H](N)[C@@H](N5CCCCC5=O)C4)ncnc3c2)cc1 [Example 129]
# min-compare on pIC50 between 1 and 2 API: response body contains the label of the selected item. 1
(1: 6.94, 2: 7.21)
